The reported measurements were obtained from PubChem BioAssay (NCI).

- Test system: U251 CNS
- experimental_protocol: NCI-60 one-dose screen, 48 h (100 = growth as untreated, 0 = no growth, -100 = all killed)
- assay_conditions: 10 µM unless noted
This is part of a sample that, as a whole, favours compounds with a hit. Of some 83,000 tested, about 20% had one in any assay.
Reported growth values for the following molecules.
Please respond with the number in % and leave the unit unwritten.

Some molecules with known growth results, for comparison:
{"columns": ["molecule", "units_of_measure", "val"],
 "data": [
  ["O=C(CSc1nccc(Nc2ccc(S(=O)(=O)Nc3nccs3)cc2)n1)c1ccc(C(F)(F)F)cc1", "%", 86.6],
  ["O=c1c2cccc(F)c2sc2c(NCCCNCCO)nc3ccccc3c12", "%", 38.8],
  ["CCCCn1c(-c2ccc(-c3nc(-c4ccc(Cl)cc4)no3)cc2)nc(-c2ccccc2)c1-c1ccccc1", "%", 87],
  ["N#CC1=C(N)Oc2c(sc3c(Br)cccc23)C1c1ccc([N+](=O)[O-])cc1 (centres undefined)", "%", 14.6],
  ["COc1cccc(/C=C2\\C=C(c3ccccc3)N(Cc3ccccc3)C2=O)c1", "%", 56.4]
]}

Prompt: Query: growth; subject: N#CC1=C(N)Oc2c(sc3c(Br)cccc23)C1c1ccc(Br)cc1 (centres undefined)
Response: 14

Prompt: Query: growth; subject: COc1cc(C(=O)N2N=C(c3ccc(S(C)(=O)=O)cc3)CC2c2ccco2)cc(OC)c1OC (centres undefined)
Response: 57.7

Prompt: Query: growth; subject: O=C(/C=C/c1sc(Cl)nc1Cl)c1ccccc1
Response: 69.9

Prompt: Query: growth; subject: Cc1cc(N2CCCC2)nc(N(CCCNc2ccnc3cc(Cl)ccc23)Cc2ccccn2)n1
Response: 55.3

Prompt: Query: growth; subject: COc1cccc2c(=O)c3c(sc12)c(N1CCNCC1)nc1ccccc13
Response: 12.2

Prompt: Query: growth; subject: COc1ccc(-c2cnc3ccccc3n2)cc1
Response: 86.3

###

Reported growth values for the following compounds.
- System: MDA-MB-231 breast
- experimental_protocol: NCI-60 one-dose screen, 48 h (100 = growth as untreated, 0 = no growth, -100 = all killed)
- assay_conditions: 10 µM unless noted
The panel holds about 83,000 compounds, 20% with a hit somewhere; the sample as a whole holds those more often.
Please respond with the number in % and leave the unit unwritten.

Some compounds with known growth results, for comparison:
{"columns": ["compound", "target_or_system", "growth, %"],
 "data": [
  ["O=C(N/N=C/[C@H](O)[C@@H](O)[C@@H](O)[C@H](O)CO)c1ccc(NC(=O)c2cccnc2)cc1", "MDA-MB-231 breast", 100],
  ["COc1ccc(/C=N/Nc2cc(=O)[nH]c3ccc(Cl)cc23)cc1", "MDA-MB-231 breast", 71.3],
  ["COc1ccc(OC)c(/C=C2\\Oc3cc(OCCN4CCC(Cc5ccccc5)CC4)ccc3C2=O)c1", "MDA-MB-231 breast", 82.9],
  ["CN(C)c1ccc(/C=N\\Nc2cc(=O)[nH]c3ccc(Cl)cc23)cc1", "MDA-MB-231 breast", 91.5]
]}

Prompt: Param readout = growth; param system = MDA-MB-231 breast; param query = CCOC(=O)C1=C(N)Oc2c(sc3c(CC)cccc23)C1c1ccc(F)cc1 (stereo not given) ; response: value
Response: 73.1
